System: Bovine viral diarrhea virus (BVDV) (strain NADL)
run.description: Assay for inhibition of BVDV
Type: cell-based
settings: MDBK cells
EC50 values by entry

# compound, experimental.result
measured = [
    ("COC(=O)NNc1ncnc2c1ncn2[C@@H]1O[C@H](CO)[C@@H](O)[C@@]1(C)O [Compound S1-16]", "25 to 100 µM"),
    ("C[C@@]1(O)[C@H](O)[C@@H](CO)O[C@H]1n1cnc2c(NNS(C)(=O)=O)ncnc21 [Compound S1-18]", "25 to 100 µM"),
    ("C[C@@]1(O)[C@H](O)[C@@H](CO)O[C@H]1n1cnc2c(NCCN)ncnc21 [Compound S2-1]", "25 to 100 µM"),
    ("C[C@@]1(O)[C@H](O)[C@@H](CO)O[C@H]1n1cnc2c(NCCO)ncnc21 [Compound S1-9]", "> 100 µM"),
    ("CN(C)Nc1ncnc2c1ncn2[C@@H]1O[C@H](CO)[C@@H](O)[C@@]1(C)O [Compound S1-12]", "< 25 µM"),
]

stdin: Query: EC50; subject: CC1(C)OCC(CNc2ncnc3c2ncn3[C@@H]2O[C@H](CO)[C@@H](O)[C@@]2(C)O)O1 (some centres unmarked) [Compound S1-8]
stdout: > 100 µM

stdin: Try this compound too: CC(C)(C)OC(=O)NOc1ncnc2c1ncn2[C@@H]1O[C@H](CO)[C@@H](O)[C@@]1(C)O [Compound S1-21]
stdout: > 100 µM

stdin: Try this compound too: C[C@@]1(O)[C@H](O)[C@@H](CO)O[C@H]1n1cnc2c(NO)ncnc21 [Compound S1-19]
stdout: 25 to 100 µM

* * *

Tested on: Bovine viral diarrhea virus (BVDV) (strain NADL)
run.description: Assay for inhibition of BVDV
Type: cell-based
settings: MDBK cells
pEC50: −log10 of the molar value.
pEC50 values by entry

Reference set (4 entries):
# structure.as.smiles, pEC50
measured = [
    ("C[C@@]1(O)[C@H](O)[C@@H](CO)O[C@H]1n1cnc2c(ONC(=O)OCc3ccccc3)ncnc21", "< 4.00"),
    ("C[C@@]1(O)[C@H](O)[C@@H](CO)O[C@H]1n1cnc2c(NC[C@H]3CCCO3)ncnc21", "< 4.00"),
    ("CC(=O)NNc1ncnc2c1ncn2[C@@H]1O[C@H](CO)[C@@H](O)[C@@]1(C)O", "> 4.60"),
    ("CCOc1ccccc1CNc1ncnc2c1ncn2[C@@H]1O[C@H](CO)[C@@H](O)[C@@]1(C)O", "< 4.00"),
]

stdin: Query: pEC50; subject: `C[C@@]1(O)[C@H](O)[C@@H](CO)O[C@H]1n1cnc2c(NN)ncnc21`
stdout: 4.00 to 4.60

stdin: Try this compound too: `CN(N)c1ncnc2c1ncn2[C@@H]1O[C@H](CO)[C@@H](O)[C@@]1(C)O`
stdout: < 4.00

stdin: Try this compound too: `CSc1cccc(Nc2ncnc3c2ncn3[C@@H]2O[C@H](CO)[C@@H](O)[C@@]2(C)O)c1`
stdout: < 4.00

* * *

Tested on: Bovine viral diarrhea virus (BVDV) (strain NADL)
run.description: Assay for inhibition of BVDV
Type: cell-based
settings: Bovine viral diarrhea virus isolates and strains, MDBK cells
pEC50: −log10 of the molar value.
outcome.measure: pEC50

stdin: Query: pEC50; subject: `C[C@@]1(O)[C@H](O)[C@@H](CO)O[C@H]1n1cnc2c(NCCNc3ncnc4c3ncn4[C@@H]3O[C@H](CO)[C@@H](O)[C@@]3(C)O)ncnc21`
stdout: < 4.00

* * *

pEC50 values by entry
System: Bovine viral diarrhea virus (BVDV) (strain NADL)
run.description: Assay for inhibition of BVDV
Type: cell-based
settings: MDBK cells
pEC50: −log10 of the molar value.

Reference set (2 entries):
# structure.as.smiles, pEC50
data = [
    ("C[C@@]1(O)[C@H](O)[C@@H](CO)O[C@H]1n1cnc2c(N(N)CCO)ncnc21", "< 4.00"),
    ("CON(C)c1ncnc2c1ncn2[C@@H]1O[C@H](CO)[C@@H](O)[C@@]1(C)O", "< 4.00"),
]

In the following, a different compound is considered.
stdin: Query: pEC50; subject: `C[C@@]1(O)[C@H](O)[C@@H](CO)O[C@H]1n1cnc2c(NNC=O)ncnc21`
stdout: < 4.00
